tested on: 786-0 renal; assay: NCI-60 one-dose screen, 48 h; details: 10 µM unless noted
Compounds without any hit were thinned out: in the full panel of roughly 83,000, 20% have a hit. Activity calls are given as the source filed them. The calls were made as follows: active = growth percent below 10; inactive = the rest.
Entry note: the call must match one of Yes (active), No (inactive)

Answered examples (3):
COc1ccc(Cn2cc(Cn3cc(C=C4C(=O)NC(=O)NC4=O)c4ccccc43)nn2)cc1	No
C[n+]1c2ccccc2nc2ccc(NCCO)cc21	No
Cc1ccc(S(=O)(=O)c2c(COC(=O)c3cccc(C)c3)c(-c3ccccc3)nn2C)cc1	No

Problem: Call for entry Cc1ccc2sc3c(NCCCNCCO)nc4ccccc4c3c(=O)c2c1 :
Result: No

Problem: Call for entry CCCc1c(C)c2sc(=O)[nH]c2[nH]c1=O :
Result: No

Problem: Call for entry Cc1ccc2[nH]c(=O)cc(-n3nncc3Cn3c4ccccc4c4ccccc43)c2c1 :
Result: No

Problem: Call for entry COc1cc(/C=C/C(=O)N2c3ccccc3CC2C)c(OC)c2c1OCO2 (stereo unspecified) :
Result: No

Problem: Call for entry CC[C@@H](C)[C@H](NC(=O)Cn1cc(CNC(=O)[C@@H](NC(=O)OCc2ccccc2)C(C)C)nn1)C(=O)O :
Result: No

Problem: Call for entry CCOC(=O)c1cnc2c(C)cccc2c1Nc1ccc(C(C)=O)cc1 :
Result: Yes

Problem: Call for entry O=Nc1c(O)ccc2ccccc12.O=Nc1c(O)ccc2ccccc12.O=Nc1c([O-])ccc2ccccc12.[Fe+3] :
Result: No

###

Please respond with reported growth for every item in the list.
test system: SF-295 CNS; assay: NCI-60 one-dose screen, 48 h (100 = growth as untreated, 0 = no growth, -100 = all killed); details: 10 µM unless noted
Compounds without any hit were thinned out: in the full panel of roughly 83,000, 20% have a hit.
One number for each entry, in %.

Examples with answers:
CCCCCCC(O)(c1ccc(F)cc1)C(CN1CCOCC1)c1ccccc1 (stereo not given)	-21.5
CCN1CCN(C(=S)SCC(=O)Nc2nc3ccc(C)cc3s2)CC1	106
CCN1C(=O)N(CC)C2C1NC(=S)N2/N=C/C=C/c1ccccc1OC (stereo not given)	11.1
Cc1ccc(C(=O)c2oc3ccc4c(C)cc(=O)oc4c3c2C)cc1	4.06

Consider the record given below.
Problem: Name the reported growth value associated with the molecule CC(=O)Nc1nc2c(s1)CCc1c-2cn(S(=O)(=O)c2ccccc2)c1-c1ccccc1
Result: 43.5

###

Please respond with reported growth for every item in the list.
test system: HS 578T breast; assay: NCI-60 one-dose screen, 48 h (100 = growth as untreated, 0 = no growth, -100 = all killed); settings: 10 µM unless noted
The panel holds about 83,000 compounds, 20% with a hit somewhere; the sample as a whole holds those more often.
One number for each entry, in %.

Go through the items and report each one's growth.
1. O=C1c2ccccc2C(=O)c2c1ccc1[nH]c(CCl)nc21
2. O=C(Cn1cc(COc2ncnc3c2cnn3-c2ccccc2)nn1)Nc1cccc2ccccc12
3. COc1ccc(C2=C(c3cccc(OC)c3)C(=O)c3ccc(C)nc3C2=O)cc1
4. O=NN(Cc1cccnc1)C(=O)NC1CCCCC1

Result:
18.2
85.1
52.5
118

###

test system: BT-549 breast; assay: NCI-60 one-dose screen, 48 h (100 = growth as untreated, 0 = no growth, -100 = all killed); conditions: 10 µM unless noted
About 83,000 compounds went through this panel and 20% of them were active in at least one assay; those are over-represented in the sample as a whole. The source made the active and inactive calls. Rule for the calls: active = growth percent below 10; inactive = the rest.
measured-metric: growth

Examples with answers:
O=C(/C=C/c1ccc(Cl)cc1)c1ccc(Nc2nc(NCCO)nc(N3CCOCC3)n2)cc1	85% (inactive)
COC(=O)[C@H](NC(=O)C1(C)CCC[C@]2(C)[C@H]3C[C@H]4C(C(C)C)=C[C@]3(CC[C@@H]12)[C@@H]1C(=O)CCC(=O)[C@@H]14)C(C)C (stereo partly drawn)	106% (inactive)

Go through the items and report each one's growth.
1. COc1cc(/C=C/C(=O)N2c3ccccc3CC2C)c(OC)c2c1OCO2 (stereo not drawn)
2. CC(C)(C)c1ccc(C2CC(=O)C3=C(C2)Nc2ccccc2N(C(=O)c2ccccc2Cl)C3c2ccc(F)cc2)cc1 (stereo not drawn)

Result:
1: 97.7% (inactive); 2: 44.4% (inactive)

###

system: MALME-3M melanoma; assay: NCI-60 one-dose screen, 48 h; details: 10 µM unless noted
About 83,000 compounds went through this panel and 20% of them were active in at least one assay; those are over-represented in the sample as a whole. Active and inactive are the calls of the source. How the source made its calls: active means growth percent below 10; inactive means the rest.
Entry note: the call must match one of active, inactive

Answered examples (5):
Nc1nc(-c2ccccc2Br)nn1-c1nc2ccccc2s1	inactive
O=S(=O)(Nc1ncccn1)c1ccc(NC2Nc3nc4ccccc4nc3S2)cc1 (centres undefined)	inactive
CC[C@]1(O)C[C@@H]2CN(CCc3c([nH]c4ccccc34)[C@@](C(=O)OC)(c3cc4c(cc3OC)N(C)[C@H]3[C@@](O)(C(=O)OC)[C@H](OC(=O)CCCBr)[C@]5(CC)C=CCN6CC[C@]43[C@@H]65)C2)C1	inactive
O=C(Nc1ccc(Br)cc1F)c1cc(Cl)ccc1O	active
O=C(c1nc2ccccc2[nH]1)C1C(c2cccc([N+](=O)[O-])c2)C2CC3CCCCC3N2[C@@]12C(=O)Nc1cc(Cl)ccc12 (some centres undefined)	inactive

Problem: Call for entry Oc1[nH]c2ccccc2c1N=Nc1nnc2n1N=C(c1ccccc1)CS2 :
Result: inactive

Problem: Call for entry O=C(/C=C/c1cccc(Cl)c1)OCc1ccc2cc1OCC#C/C=C\C#CCO2 :
Result: inactive

Problem: Call for entry O=c1oc2ccc(F)cc2c(=O)n1-c1ccc(Br)cc1F :
Result: active

Problem: Call for entry O=C(CN1C=NC2C(N3CCOCC3)=NC=NC21)c1ccc(Br)cc1 (centres undefined) :
Result: inactive

###

system: OVCAR-4 ovarian; experiment: NCI-60 one-dose screen, 48 h (100 = growth as untreated, 0 = no growth, -100 = all killed); settings: 10 µM unless noted
This is part of a sample that, as a whole, favours compounds with a hit. Of some 83,000 tested, about 20% had one in any assay. Active and inactive are the calls of the source. How the source made its calls: active means growth percent below 10; inactive means the rest.
Please respond with reported growth for every item in the list.

Examples with answers:
CC[C@]1(O)C[C@@H]2CN(CCc3c([nH]c4ccccc34)[C@@](C(=O)OC)(c3cc4c(cc3OC)N(C)[C@H]3[C@@](O)(C(=O)OC)[C@H](OC(=O)CCCBr)[C@]5(CC)C=CCN6CC[C@]43[C@@H]65)C2)C1	35.3% (inactive)
CC1=C(CC(=O)c2cccc([N+](=O)[O-])c2)C(=O)c2ccccc2C1=O	-89.2% (active)
CCCCN1CCN(c2ccc3nc(-c4ccc5nc(-c6ccc(OCC)cc6)[nH]c5c4)[nH]c3c2)CC1	55.2% (inactive)
COc1ccc(Cn2cc(Cn3c(=O)c(-c4nc5ccccc5[nH]4)cc4ccccc43)nn2)c(OC)c1OC	0.605% (active)
COc1ccc(C)c2sc(N(Cc3cccnc3)C(=O)c3ccc(C#N)cc3)nc12	14.3% (inactive)
O=NN(C(=O)NC1CCC(C(=O)O)CC1)C1CCC(C(=O)O)CC1 (stereo not given)	95.8% (inactive)

Go through the items and report each one's growth.
1. Clc1ccc(Oc2ccc(Nc3ncnc4onc(-c5ccccc5)c34)cc2)c(Cl)c1
2. O=C(CSc1ncccc1C(=O)O)Nc1ccc(Oc2ccccc2)cc1

Result:
1. 81.5% (inactive)
2. 89.4% (inactive)

Go through the items and report each one's growth.
1. O=C(COc1cc(O)c2c(=O)cc(-c3ccccc3)oc2c1)Nc1ccccc1C(F)(F)F
2. COc1ccc2c(c1)C=C1CSCC3=Cc4cc(OC)ccc4OC13O2
3. CC(C)C[C@H](C(=O)N[C@@H](C)C(N)=O)N1CC=CCN(O)S1(=O)=O
4. Cc1ccc2c(n1)C(=O)C(Oc1ccc(Br)cc1)=CC2=O
5. NCCNc1nc2ccccc2c2c(=O)c3cc(F)cc(Cl)c3sc12

Result:
-50.1% (active)
47.8% (inactive)
106% [5 µM] (inactive)
94.5% (inactive)
-73.4% (active)

###

system: MOLT-4 leukemia; experiment: NCI-60 one-dose screen, 48 h; conditions: 10 µM unless noted
This is part of a sample that, as a whole, favours compounds with a hit. Of some 83,000 tested, about 20% had one in any assay. Activity calls are given as the source filed them. The calls were made as follows: active = growth percent below 10; inactive = the rest.
Entry note: the call must match one of Yes = active, No = inactive

CCOC(=O)c1cc2c(n1Cc1ccccc1OC)-c1oncc1CCC2	No
CCn1c(Cc2ccccc2Nc2c(Cl)cccc2Cl)nnc1SCC(=O)NN1C(=O)/C(=C/c2cccc(OC)c2OC)SC1=S	No
COc1cccc(/C(C#N)=C/c2nc3c(N4CCOCC4)nc(Cl)nc3n2C)c1	Yes
Cn1cc([C@@H]2Nc3ccc4[nH]ncc4c3[C@H]3[C@H]4CCC(C4)[C@H]32)c(C(F)(F)F)n1	No
O=c1oc2ccc(I)cc2c(=O)n1-c1ccc(F)cc1F	No

Problem: Call for entry COc1nc2c(c(=O)n1C)N=C1c3ccccc3C(=O)C1C(c1ccccc1)N2 (stereo not given) :
Result: No

Problem: Call for entry O=C1c2ccccc2C(=O)c2c1ccc1[nH]c(CCl)nc21 :
Result: Yes

Problem: Call for entry Nc1ccc(C2c3ccccc3Oc3ccccc32)cc1 :
Result: No

Problem: Call for entry Cc1ccc(C)c(-c2csc(Nc3ccc(C)c(C)c3)n2)c1 :
Result: No

Problem: Call for entry O=C(Nc1ccc(Cl)cc1)c1cc2ccccc2cc1OP(=O)(O)O :
Result: No
